Species: Rattus norvegicus
Assay: DrugMatrix - Regimen: Daily Repeat
Assay type: toxicity, organism-based, Sprague-Dawley
Set-up: regimen Daily Repeat, gender Male, age 6-8 weeks
Details: in vivo, sc, 0 mg/kg, 120 h, tissue Plasma, route subcutaneous, dose level Control, time 5 day, […]
Parameter: GLUCOSE. Scope: all listed entries.
Supply the numeric figure in mg/dL, leaving out any unit text.

• CC(C)(C)CC(C)(C)c1ccc(OCCOCC[N+](C)(C)Cc2ccccc2)cc1.[Cl-] [BENZETHONIUM CHLORIDE] = 149.67
• O=C(Nc1ccc(Br)cc1)c1cc(Br)cc(Br)c1O [TRIBROMSALAN] = 183
• CCC(=O)O[C@]1(C(=O)CCl)[C@@H](C)C[C@H]2[C@@H]3CCC4=CC(=O)C=C[C@]4(C)[C@@]3(F)[C@@H](O)C[C@@]21C [CLOBETASOL PROPIONATE] = 183
• CCN(CC)CCOCCC1=CCC2CC1C2(C)C (stereo not given) [MYRTECAINE] = 156.33

Identify measured GLUCOSE associated with Oc1c(Cl)cc(Cl)c(Cl)c1Cc1c(O)c(Cl)cc(Cl)c1Cl [HEXACHLOROPHENE]
149.67

----------
Readings of URIC ACID for the listed molecules
Species: Rattus norvegicus
Experiment: DrugMatrix - Regimen: Daily Repeat
Type: toxicity, organism-based, Sprague-Dawley
Parameters: regimen Daily Repeat, gender Male, age 6-8 weeks
Conditions: in vivo, po, 2000 mg/kg, 120 h, tissue Plasma, route oral GAVAGE, dose level High, time 5 day, vehicle .5 % CMC
Answer with a number only, understood to be in mg/dL.

* CC1(C)S[C@@H]2[C@H](NC(=O)[C@H](N)c3ccccc3)C(=O)N2[C@H]1C(=O)O | 1.6
* CN/C(=N/CCSCc1nc[nH]c1C)NC#N | 1.9
* COc1cc2nc(N3CCN(C(=O)c4ccco4)CC3)nc(N)c2cc1OC | 0.73

Now for the molecule whose URIC ACID we want.
Specify measured URIC ACID for O=C1Nc2ccc(Cl)cc2C(c2ccccc2Cl)=NC1O (centres undefined) .
0.65

----------
Species: Rattus norvegicus
Test: DrugMatrix - Regimen: Daily Repeat
Type: toxicity, organism-based, Sprague-Dawley
Parameters: regimen Daily Repeat, gender Male, age 6-8 weeks
Settings: in vivo, po, 1500 mg/kg, 72 h, tissue Plasma, route oral GAVAGE, dose level High, time 3 day, vehicle .5 % CMC
Rule: condition met for ALKALINE PHOSPHATASE not less than 400 u/L, condition not met for anything less.

Record excerpt, results attached:
- O=c1cnn([C@@H]2O[C@H](CO)[C@@H](O)[C@H]2O)c(=O)[nH]1 [6-AZAURIDINE]: condition not met
- CC(C)=CCC/C(C)=C/CO [GERANIOL]: condition met
- CC(C)Oc1ccc2c(=O)c(-c3ccccc3)coc2c1 [IPRIFLAVONE]: condition not met

Consider the record given below.
Confirm if ALKALINE PHOSPHATASE reported for the compound COC(=O)Nc1nc2ccc([S+]([O-])c3ccccc3)cc2[nH]1 (stereo not given) [OXFENDAZOLE] is 400 u/L or above.
condition not met

----------
A collection of molecules and their measured MEAN CORPUSCULAR HEMOGLOBIN
Organism: Rattus norvegicus
Experiment: DrugMatrix - Regimen: Daily Repeat
Assay type: toxicity, organism-based, Sprague-Dawley
Design: regimen Daily Repeat, gender Male, age 6-8 weeks
Details: in vivo, po, 0 mg/kg, 72 h, tissue Blood, route oral GAVAGE, dose level Control, time 3 day, vehicle 100 % WATER
Report only the number, with the unit pg understood.

Would you please look over these solved cases?
• C[C@]12C=CC(=O)C=C1CC[C@@H]1[C@@H]2[C@@H](O)C[C@@]2(C)[C@H]1CC[C@]2(O)C(=O)CO [PREDNISOLONE] = 23.62
• Cn1c(=O)c2[nH]cnc2n(C)c1=O.O [THEOPHYLLINE] = 24.53

Here is the next item to consider.
Quote MEAN CORPUSCULAR HEMOGLOBIN reported for CN(C)CCOC(c1ccccc1)c1ccccc1 [DIPHENHYDRAMINE] please.
24.42

----------
Species on record: Rattus norvegicus
Assay: DrugMatrix - Regimen: Daily Repeat
Type: toxicity, organism-based, Sprague-Dawley
Set-up: regimen Daily Repeat, gender Male, age 6-8 weeks
Details: in vivo, sc, 0 mg/kg, 72 h, tissue Plasma, route subcutaneous, dose level Control, time 3 day, […]
attribute measured: POTASSIUM
A bare number is not enough; add the unit after it.

• CCC(=O)O[C@]1(C(=O)CCl)[C@@H](C)C[C@H]2[C@@H]3CCC4=CC(=O)C=C[C@]4(C)[C@@]3(F)[C@@H](O)C[C@@]21C [CLOBETASOL PROPIONATE] = 6.39 MEQ/L

State its POTASSIUM for this compound: CC(C)(C)CC(C)(C)c1ccc(OCCOCC[N+](C)(C)Cc2ccccc2)cc1.[Cl-] [BENZETHONIUM CHLORIDE]
6.17 MEQ/L

Specify POTASSIUM for Oc1c(Cl)cc(Cl)c(Cl)c1Cc1c(O)c(Cl)cc(Cl)c1Cl and stop.
6.17 MEQ/L

Answer with reported POTASSIUM of CCN(CC)CCOCCC1=CCC2CC1C2(C)C (stereo not given)
6.59 MEQ/L

For the compound O=C(Nc1ccc(Br)cc1)c1cc(Br)cc(Br)c1O , give its reported POTASSIUM.
6.39 MEQ/L

----------
Organism: Rattus norvegicus
Assay: DrugMatrix - Regimen: Daily Repeat
Type: toxicity, organism-based, Sprague-Dawley
Set-up: regimen Daily Repeat, gender Male, age 6-8 weeks
Details: in vivo, sc, 0 mg/kg, 120 h, tissue Blood, route subcutaneous, dose level Control, time 5 day, […]
attribute measured: MEAN CORPUSCULAR VOLUME (fL)
Unit fL implied. Number only.

Please review the following examples before continuing.
- O=C(Nc1ccc(Br)cc1)c1cc(Br)cc(Br)c1O: 64.97
- CCC(=O)O[C@]1(C(=O)CCl)[C@@H](C)C[C@H]2[C@@H]3CCC4=CC(=O)C=C[C@]4(C)[C@@]3(F)[C@@H](O)C[C@@]21C [CLOBETASOL PROPIONATE]: 64.97
- CC(C)(C)CC(C)(C)c1ccc(OCCOCC[N+](C)(C)Cc2ccccc2)cc1.[Cl-] [BENZETHONIUM CHLORIDE]: 63.05
- Oc1c(Cl)cc(Cl)c(Cl)c1Cc1c(O)c(Cl)cc(Cl)c1Cl: 63.05

Now turn to the next compound.
Retrieve MEAN CORPUSCULAR VOLUME measured for CCN(CC)CCOCCC1=CCC2CC1C2(C)C (stereo not given) and print it.
63

----------
Species: Rattus norvegicus
Assay: DrugMatrix - Regimen: Daily Repeat
Assay type: toxicity, organism-based, Sprague-Dawley
Design: regimen Daily Repeat, gender Male, age 6-8 weeks
Details: in vivo, po, 1500 mg/kg, 120 h, tissue Plasma, route oral GAVAGE, dose level High, time 5 day, vehicle .5 % CMC
attribute measured: CHLORIDE (MEQ/L)
Number only, in MEQ/L; omit the unit.

- CN(C)[C@@H]1C(O)=C(C(N)=O)C(=O)[C@@]2(O)C(O)=C3C(=O)c4c(O)ccc(Cl)c4[C@@](C)(O)[C@H]3C[C@@H]12 [CHLORTETRACYCLINE]: 100.67
- COC(=O)Nc1nc2ccc([S+]([O-])c3ccccc3)cc2[nH]1 (stereo not given) [OXFENDAZOLE]: 101.67
- CC(C)Oc1ccc2c(=O)c(-c3ccccc3)coc2c1 [IPRIFLAVONE]: 102.33
- O=c1cnn([C@@H]2O[C@H](CO)[C@@H](O)[C@H]2O)c(=O)[nH]1 [6-AZAURIDINE]: 105.33

Now look at this entry.
Answer with the recorded CHLORIDE for the compound listed here: CC(C)=CCC/C(C)=C/CO [GERANIOL]
102.33

----------
Organism: Rattus norvegicus
Assay: DrugMatrix - Regimen: Daily Repeat
Format: toxicity, organism-based, Sprague-Dawley
Parameters: regimen Daily Repeat, gender Male, age 6-8 weeks
Settings: in vivo, sc, 0 mg/kg, 72 h, tissue Plasma, route subcutaneous, dose level Control, time 3 day, […]
Measured TOTAL BILIRUBIN, listed per entry.

Some entries whose results are on file:
- CCC(=O)O[C@]1(C(=O)CCl)[C@@H](C)C[C@H]2[C@@H]3CCC4=CC(=O)C=C[C@]4(C)[C@@]3(F)[C@@H](O)C[C@@]21C [CLOBETASOL PROPIONATE]: 0.18 mg/dL
- CC(C)(C)CC(C)(C)c1ccc(OCCOCC[N+](C)(C)Cc2ccccc2)cc1.[Cl-] [BENZETHONIUM CHLORIDE]: 0.2 mg/dL
- O=C(Nc1ccc(Br)cc1)c1cc(Br)cc(Br)c1O: 0.18 mg/dL
- Oc1c(Cl)cc(Cl)c(Cl)c1Cc1c(O)c(Cl)cc(Cl)c1Cl: 0.2 mg/dL

Consider the record given below.
Provide TOTAL BILIRUBIN value for the following molecule: CCN(CC)CCOCCC1=CCC2CC1C2(C)C (stereo not given)
0.22 mg/dL
